# System: biotinyl-Met-oxazolone
# Test details: self-aminoacylation, catalytic enhancement (BMO) (fold over background); higher = more active; k-Seq, kA / k0A0; sequences stand for … in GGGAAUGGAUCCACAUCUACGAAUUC…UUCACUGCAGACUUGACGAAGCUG
Fewer inactive variants are shown than the library holds.
Experimental readout: self-aminoacylation

Check out these entries, answers already filled in.
[
  {
    "Sequence entry": "CCACGCUUCAAGAAAUCGGUC [Fam1B.1 aminoacylation ribozyme variant]",
    "self-aminoacylation": 0.772
  },
  {
    "Sequence entry": "AGUACCCUGGGCAUCGAGUGA [Fam2.1 aminoacylation ribozyme variant]",
    "self-aminoacylation": 6.28
  },
  {
    "Sequence entry": "CCACACUUCCAGUAAUCGGUC [Fam1B.1 aminoacylation ribozyme variant]",
    "self-aminoacylation": 0.791
  },
  {
    "Sequence entry": "AUCACCCUGGUCAUCGAGCGA [Fam2.1 aminoacylation ribozyme variant]",
    "self-aminoacylation": 2.16
  },
  {
    "Sequence entry": "AUUUACCUGGUCAUCGAGUGA [Fam2.1 aminoacylation ribozyme variant]",
    "self-aminoacylation": 7.97
  }
]

Fill in reported self-aminoacylation for this entry: UUUACCCUGUUCAUCGAGUGA [Fam2.1 aminoacylation ribozyme variant]
4.11

Quote self-aminoacylation reported for CCACAGUUCAAUCAAUCGGUC [Fam1B.1 aminoacylation ribozyme variant] please.
0.905

Answer with the recorded self-aminoacylation of AAGUUUACUAAGAGUCGCAAG [Fam3.1 aminoacylation ribozyme variant] only.
1.37

Respond only with self-aminoacylation recorded for CUACUUCUAACAAUCCGUCUG [Fam1A.1 aminoacylation ribozyme variant]
0.679

Indicate its recorded self-aminoacylation; the sequence in question is AGUCACCUAUGUCAUCGGGUG [Fam2.2 aminoacylation ribozyme variant]
4.37

Give the reported self-aminoacylation for this sequence. CCACACUUCAAACAAUCGCUC [Fam1B.1 aminoacylation ribozyme variant]
0.869

Report measured self-aminoacylation; entry is AUUCACCCAGGUCAUCGUGUG [Fam2.2 aminoacylation ribozyme variant]
1.04

Look up and report measured self-aminoacylation for this entry: AUUAUCGUGGUCAUCGAGUGA [Fam2.1 aminoacylation ribozyme variant]
4.44

Dear colleague, please send me the reported self-aminoacylation for AAGUUUGUUGAUAGUCGCAAG [Fam3.1 aminoacylation ribozyme variant] when you can.
1.09

Give me measured self-aminoacylation, please, for this sequence: UUUCACCUAGUUCAUCGGGUG [Fam2.2 aminoacylation ribozyme variant]
2.6

Find the measured self-aminoacylation of AUUCACCUAGCACAUCGGGUG [Fam2.2 aminoacylation ribozyme variant] and report it.
2.38

----------
# Tested on: biotinyl-Leu-oxazolone
# Test details: self-aminoacylation, catalytic enhancement (BLO) (fold over background); higher = more active; k-Seq, kA / k0A0; sequences stand for … in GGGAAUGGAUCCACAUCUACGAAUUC…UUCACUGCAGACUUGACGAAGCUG
Fewer inactive variants are shown than the library holds.
Experimental readout: self-aminoacylation
Lab note: record just the number, no unit beside it.

Here is how some sequences turned out for self-aminoacylation.
[
  {
    "Sequence entry": "CUACUUCAAACAAUCGGCUUG [Fam1A.1 aminoacylation ribozyme variant]",
    "Experimental readout": "self-aminoacylation",
    "Recorded value": 1.21
  },
  {
    "Sequence entry": "CUACCUCAACCAAUCGGUCUG [Fam1A.1 aminoacylation ribozyme variant]",
    "Experimental readout": "self-aminoacylation",
    "Recorded value": 0.671
  },
  {
    "Sequence entry": "AUUCACCCACGUCAUCGGGUG [Fam2.2 aminoacylation ribozyme variant]",
    "Experimental readout": "self-aminoacylation",
    "Recorded value": 6.88
  }
]

Identify measured self-aminoacylation associated with AUUACCCUGGUUAUUGAGUGA [Fam2.1 aminoacylation ribozyme variant]
15.1

Give me measured self-aminoacylation, please, for this sequence: AAGUUUGCCAAUAGUCGCGAG [Fam3.1 aminoacylation ribozyme variant]
2.25

Find the measured self-aminoacylation of AUUCAACUAGGUCAUCGGGAG [Fam2.2 aminoacylation ribozyme variant] and report it.
0.899

State, in one line, measured self-aminoacylation of AAGUUUGCUAAUAGUCCCAAU [Fam3.1 aminoacylation ribozyme variant]
1

----------
# System: biotinyl-Trp-oxazolone
# Test details: self-aminoacylation, catalytic enhancement (BWO) (fold over background); higher = more active; k-Seq, kA / k0A0; sequences stand for … in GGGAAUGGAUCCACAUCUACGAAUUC…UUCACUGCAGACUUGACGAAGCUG
Variants at the floor of the assay were thinned out.
Classify on self-aminoacylation using bottom range: < 1; center range: ≥ 1 and < 2; top range: ≥ 2

The examples below pair each entry with its known result.
[
  {
    "Sequence entry": "AGGUUUGCUAAUAGUCGCCAG [Fam3.1 aminoacylation ribozyme variant]",
    "Label class": "top range"
  },
  {
    "Sequence entry": "ACACACUUCAAGCAAACGGUC [Fam1B.1 aminoacylation ribozyme variant]",
    "Label class": "center range"
  },
  {
    "Sequence entry": "AUCACCCUGGUCAUCGAAUGA [Fam2.1 aminoacylation ribozyme variant]",
    "Label class": "bottom range"
  },
  {
    "Sequence entry": "AUUCCCCUAGGUCAUUGGGUG [Fam2.2 aminoacylation ribozyme variant]",
    "Label class": "top range"
  }
]

Textbook exercise: identify the category of the sequence given here, AUUACCCAGGUCAUGGAGUGA [Fam2.1 aminoacylation ribozyme variant] , according to its measured value.
top range

Form: Item = AAGAUUGCAAAUAGUCGCAAG [Fam3.1 aminoacylation ribozyme variant] ; Class = ?
top range

Could you place AAGGUUGCUAAUAGUCGGAAG [Fam3.1 aminoacylation ribozyme variant] in its proper category? Many thanks.
top range

Any idea which band CUACAUAAAACAAUCGGUCUG [Fam1A.1 aminoacylation ribozyme variant] is in?
bottom range

State the class of the sequence shown: AUUCAGCUAGAUCAUCGGGUG [Fam2.2 aminoacylation ribozyme variant]
top range

Textbook exercise: identify the category of the sequence given here, CUAUUUAAAACAAUCGGUCUG [Fam1A.1 aminoacylation ribozyme variant] , according to its measured value.
bottom range

Exercise: read the entry AUUCACCUAGGUGAUCGGUUG [Fam2.2 aminoacylation ribozyme variant] and state which class it falls under.
center range

Class? Entry: ACACACUUCAAGCAAGCGGUC [Fam1B.1 aminoacylation ribozyme variant]
center range

----------
Entries annotated with measured self-aminoacylation
# Tested on: biotinyl-Ile-oxazolone
# Test details: self-aminoacylation, catalytic enhancement (BIO) (fold over background); higher = more active; k-Seq, kA / k0A0; sequences stand for … in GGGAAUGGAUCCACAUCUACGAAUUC…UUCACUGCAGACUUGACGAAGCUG
Variants at the floor of the assay were thinned out.
Answer using only a numeral; do not append any unit.

[
  {
    "Sequence entry": "CUACAUCAAACAAUCCGUCUG [Fam1A.1 aminoacylation ribozyme variant]",
    "self-aminoacylation": 0.905
  }
]

Complete the entry with self-aminoacylation for CUACUUCAUACAAUCGGUUUG [Fam1A.1 aminoacylation ribozyme variant]
0.64

Quickly give me recorded self-aminoacylation for AUUAACCUGGUCAUCGAGUGG [Fam2.1 aminoacylation ribozyme variant]
1.25

Using known records, supply self-aminoacylation for CUACCUCAAACAAUCGUUCUG [Fam1A.1 aminoacylation ribozyme variant]
0.711

Complete the entry with self-aminoacylation for UUACACCUAGGUCAUCGGGUG [Fam2.2 aminoacylation ribozyme variant]
2.25

Return self-aminoacylation for the following sequence: AUUACCCGGAUCAUCGAGUGA [Fam2.1 aminoacylation ribozyme variant]
3.43

Consider the sequence AUUCAACUAGGUCAUCGGGAG [Fam2.2 aminoacylation ribozyme variant] and give its recorded self-aminoacylation.
0.943

----------
Reported self-aminoacylation values for a set of sequences
# Tested on: biotinyl-Trp-oxazolone
# Test details: self-aminoacylation, catalytic enhancement (BWO) (fold over background); higher = more active; k-Seq, kA / k0A0; sequences stand for … in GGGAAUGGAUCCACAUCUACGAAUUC…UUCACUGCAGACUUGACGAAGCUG
This sample holds only a part of the variants without activity.
// response body must contain only the number

[
  {
    "Sequence entry": "CCACACUUCAAACAAUCGGGC [Fam1B.1 aminoacylation ribozyme variant]",
    "Recorded value": 2.65
  },
  {
    "Sequence entry": "CCACAAUUCAAGCAAUCGGAC [Fam1B.1 aminoacylation ribozyme variant]",
    "Recorded value": 0.711
  },
  {
    "Sequence entry": "AUACACCUAGGUCAACGGGUG [Fam2.2 aminoacylation ribozyme variant]",
    "Recorded value": 2.02
  }
]

For the sequence CGACUUAAAACAAUCGGUCUG [Fam1A.1 aminoacylation ribozyme variant] , give its reported self-aminoacylation.
1.06
